- System: PPARg DBDmut IVT, anti-PPARg (DBD mutation: PPARg1 K132A/R137A, NR concentration 270 nM)
- Measurement notes: PBM binding z-score (relative to random genomic background probes); higher = stronger binding; sequences stand for … in GC…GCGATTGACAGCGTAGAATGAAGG
Property: PBM binding z-score
Could you keep your reply to the number by itself?

{"Input sequence": "AGTCAAAGTTCAGGACGAGGTAACGTACAGCACG", "PBM binding z-score": 0.297}
{"Input sequence": "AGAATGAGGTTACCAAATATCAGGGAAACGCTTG", "PBM binding z-score": 0.617}

Request: Which measured PBM binding z-score value corresponds to `GCTGCTAGGTCAACTGATGGTCAGTTAAAGCTCG` ?
Result: -0.331

Request: Record: `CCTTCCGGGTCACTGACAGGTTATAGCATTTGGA`
Result: -0.286

Request: Same question, `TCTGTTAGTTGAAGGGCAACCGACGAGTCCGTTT` this time
Result: 0.734

Request: Now consider `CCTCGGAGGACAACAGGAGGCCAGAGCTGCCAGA` .
Result: -1.31

Request: Moving on to the next sequence: `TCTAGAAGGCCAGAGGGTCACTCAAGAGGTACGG`
Result: 0.186

Request: Same again, this time with `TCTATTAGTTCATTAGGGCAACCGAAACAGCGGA`
Result: 1.13

Request: And the next one, `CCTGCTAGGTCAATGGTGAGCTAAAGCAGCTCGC` ?
Result: -0.744

Request: Similarly, `CGTCCAAGGTCACTGCTAGGTCAGTGAAAGCATT` ?
Result: 0.266

Request: Try the sequence `GCTAGCAGGCCATTTTGGTCACTCAATGACGGGC`
Result: -1.4

* * *

Known PBM binding z-score of a selection of sequences
- System: RARa homodimer (NR concentration 270 nM)
- Measurement notes: PBM binding z-score (relative to random genomic background probes); higher = stronger binding; sequences stand for … in GC…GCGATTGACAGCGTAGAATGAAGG
# respond with the number and nothing more

Known PBM binding z-score results, listed for orientation:
{"Input sequence": "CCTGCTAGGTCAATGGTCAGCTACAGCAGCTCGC", "System under test": "RARa homodimer (NR concentration 270 nM)", "PBM binding z-score": -0.404}
{"Input sequence": "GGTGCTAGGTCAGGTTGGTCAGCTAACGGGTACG", "System under test": "RARa homodimer (NR concentration 270 nM)", "PBM binding z-score": 1.12}
{"Input sequence": "TTACCAAGGTGAATGTCGTTGATCCCTCTGTAGA", "System under test": "RARa homodimer (NR concentration 270 nM)", "PBM binding z-score": 0.309}
{"Input sequence": "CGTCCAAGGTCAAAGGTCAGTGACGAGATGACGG", "System under test": "RARa homodimer (NR concentration 270 nM)", "PBM binding z-score": 2.59}
{"Input sequence": "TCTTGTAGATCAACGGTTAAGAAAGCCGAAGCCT", "System under test": "RARa homodimer (NR concentration 270 nM)", "PBM binding z-score": 0.15}
{"Input sequence": "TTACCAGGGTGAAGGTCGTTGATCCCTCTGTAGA", "System under test": "RARa homodimer (NR concentration 270 nM)", "PBM binding z-score": -0.0972}
{"Input sequence": "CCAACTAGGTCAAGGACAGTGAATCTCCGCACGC", "System under test": "RARa homodimer (NR concentration 270 nM)", "PBM binding z-score": 1.21}
{"Input sequence": "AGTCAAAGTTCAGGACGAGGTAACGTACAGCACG", "System under test": "RARa homodimer (NR concentration 270 nM)", "PBM binding z-score": 0.256}
{"Input sequence": "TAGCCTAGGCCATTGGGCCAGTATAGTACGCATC", "System under test": "RARa homodimer (NR concentration 270 nM)", "PBM binding z-score": -0.489}
{"Input sequence": "CCAGACAGGTGCGAAGGTAACTCAGCCTCGATTA", "System under test": "RARa homodimer (NR concentration 270 nM)", "PBM binding z-score": 0.0972}

Request: Could you share which PBM binding z-score value was measured for `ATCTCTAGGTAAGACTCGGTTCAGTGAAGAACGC` ?
Result: 1.5

Request: Repeat with `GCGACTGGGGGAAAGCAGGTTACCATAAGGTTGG`
Result: -0.282

Request: Another sequence to look at: `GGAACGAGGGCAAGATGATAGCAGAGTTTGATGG`
Result: 0.345

Request: Now try `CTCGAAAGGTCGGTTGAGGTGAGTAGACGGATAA` .
Result: -0.0972

* * *

- Test system: THRa:RXRa (NR concentration 90 nM, RXRa partner concentration 90 nM)
- Measurement notes: PBM binding z-score (relative to random genomic background probes); higher = stronger binding; sequences stand for … in GC…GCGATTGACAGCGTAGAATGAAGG
Would you mind labelling by PBM binding z-score? At or over 1 is 1 (yes), under is 0 (no).

See these solved cases before continuing.
{"Input sequence": "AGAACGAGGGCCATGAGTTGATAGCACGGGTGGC", "System under test": "THRa:RXRa (NR concentration 90 nM, RXRa partner concentration 90 nM)", "Answer label": "0 (no)"}
{"Input sequence": "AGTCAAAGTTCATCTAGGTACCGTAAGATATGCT", "System under test": "THRa:RXRa (NR concentration 90 nM, RXRa partner concentration 90 nM)", "Answer label": "1 (yes)"}
{"Input sequence": "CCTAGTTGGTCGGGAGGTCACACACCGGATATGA", "System under test": "THRa:RXRa (NR concentration 90 nM, RXRa partner concentration 90 nM)", "Answer label": "1 (yes)"}
{"Input sequence": "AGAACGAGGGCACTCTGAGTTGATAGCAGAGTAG", "System under test": "THRa:RXRa (NR concentration 90 nM, RXRa partner concentration 90 nM)", "Answer label": "1 (yes)"}

Request: Kindly determine if PBM binding z-score recorded for `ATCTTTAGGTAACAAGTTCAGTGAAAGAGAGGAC` is above or exactly 1.
Result: 1 (yes)

Request: One more sequence: `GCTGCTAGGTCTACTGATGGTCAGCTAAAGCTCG`
Result: 0 (no)

Request: How about `GTACCAAGGTGAAGAGGTCGTTGATGAGTAGGCG` ?
Result: 1 (yes)

Request: `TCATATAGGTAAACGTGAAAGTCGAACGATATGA` ?
Result: 0 (no)

Request: Same again, this time with `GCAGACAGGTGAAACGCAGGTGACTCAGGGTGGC`
Result: 1 (yes)

Request: Next: `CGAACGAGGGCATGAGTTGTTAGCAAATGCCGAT`
Result: 1 (yes)

Request: Now consider `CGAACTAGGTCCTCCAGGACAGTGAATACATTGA` .
Result: 1 (yes)

Request: Now give it for `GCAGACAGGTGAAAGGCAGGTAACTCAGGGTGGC` too.
Result: 1 (yes)

Request: Further, for `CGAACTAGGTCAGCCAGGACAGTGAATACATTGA` ?
Result: 1 (yes)

Request: Okay, and `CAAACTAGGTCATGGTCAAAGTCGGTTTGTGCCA` ?
Result: 1 (yes)

Request: Ok, now `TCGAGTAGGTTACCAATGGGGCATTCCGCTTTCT`
Result: 0 (no)

Request: Repeat with `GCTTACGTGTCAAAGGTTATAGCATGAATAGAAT`
Result: 1 (yes)

Request: Another: `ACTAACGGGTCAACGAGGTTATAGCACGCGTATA`
Result: 1 (yes)

Request: Can you handle `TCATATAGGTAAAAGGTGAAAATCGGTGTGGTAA` next?
Result: 1 (yes)

Request: Query `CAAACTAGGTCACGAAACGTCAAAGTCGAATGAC` next
Result: 1 (yes)

Request: Note, next up: `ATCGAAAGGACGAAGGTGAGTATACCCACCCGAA`
Result: 0 (no)

Request: Another sequence: `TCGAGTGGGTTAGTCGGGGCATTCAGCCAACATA`
Result: 1 (yes)

Request: Also `CCGACTAGGGCATAAGGTTACCATAAGCCAGCCC` , if possible.
Result: 1 (yes)

Request: Item: `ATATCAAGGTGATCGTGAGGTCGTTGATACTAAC`
Result: 1 (yes)

Request: Let us now turn to `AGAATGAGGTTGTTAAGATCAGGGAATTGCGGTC`
Result: 0 (no)

Request: Subsequent entry: `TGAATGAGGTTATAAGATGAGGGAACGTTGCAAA`
Result: 1 (yes)

Request: Same for `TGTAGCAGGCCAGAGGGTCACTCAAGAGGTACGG`
Result: 1 (yes)

Request: Would you kindly repeat that for `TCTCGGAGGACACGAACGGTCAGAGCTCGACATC` ?
Result: 1 (yes)

Request: Moving on to `CGTCCAAGGTCAGGGAGGTCAGTGAATGCCGAGT`
Result: 1 (yes)

Request: Record: `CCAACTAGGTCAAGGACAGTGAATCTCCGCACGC`
Result: 1 (yes)

Request: Okay, and `ATCTCTAGGTAACCCAGTTCAGTGAATGCCGAAC` ?
Result: 1 (yes)

Request: Same question, `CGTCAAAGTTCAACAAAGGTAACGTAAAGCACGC` this time
Result: 1 (yes)

Request: Also check `CCGACTGGGGCATAAGCTTACCATAAGCCAGCCC`
Result: 0 (no)
